B1: SEC22B (parent)
chain: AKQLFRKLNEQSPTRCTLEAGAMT

- Variants of: B1
- ASSAY_EXPLANATION: protein stability index of a GFP-peptide fusion (GPS, HEK-293T) (PSI 1-6); higher = more stable;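 further: lentivirally expressed fusions sorted by FACS into six bins by GFP to DsRed ratio, PSI derived from sequencing read proportions per bin multiplied by bin number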
- CONDITION: c terminus: a fixed tail appended
READOUT_KIND: protein stability index

Some entries whose results are on file:
1) C16A = 3.07
2) K7L = 1.69
3) A22F = 1.49
4) Q11W = 1.98
5) F5D = 3.37
6) N9Q = 2.5

Hi, could you look up protein stability index for each item in my list?
1. L4M
2. L8C
3. T17P
4. R6S
5. E10W
6. Q3R
7. A20H
8. F5P

// result
1. 2.4
2. 2.35
3. 2.77
4. 2.53
5. 1.56
6. 1.93
7. 2.47
8. 3.46

Would you be so kind as to report protein stability index for each listed record?
1. K7I
2. T17V
3. T24A
4. L8V
5. E19K
6. R6F

// result
1: 1.81; 2: 2.18; 3: 1.82; 4: 3.09; 5: 2.47; 6: 1.49

For each listed entry, give its protein stability index.
1. T14P
2. M23G
3. F5T
4. M23Q
5. T24L

// result
1: 2.35; 2: 2.85; 3: 2.75; 4: 2.81; 5: 2.13

Lab note: each variant below needs its protein stability index filled in.
1. E19A
2. C16T
3. E10R
4. R15E
5. E10F

// result
1. 2.28
2. 3.64
3. 2.22
4. 2.81
5. 2.99
